biological target: UniProtKB Q04771; assay: TR-FRET enzymatic ALK kinase assay, ALK2
Sequence (Q04771 21-509): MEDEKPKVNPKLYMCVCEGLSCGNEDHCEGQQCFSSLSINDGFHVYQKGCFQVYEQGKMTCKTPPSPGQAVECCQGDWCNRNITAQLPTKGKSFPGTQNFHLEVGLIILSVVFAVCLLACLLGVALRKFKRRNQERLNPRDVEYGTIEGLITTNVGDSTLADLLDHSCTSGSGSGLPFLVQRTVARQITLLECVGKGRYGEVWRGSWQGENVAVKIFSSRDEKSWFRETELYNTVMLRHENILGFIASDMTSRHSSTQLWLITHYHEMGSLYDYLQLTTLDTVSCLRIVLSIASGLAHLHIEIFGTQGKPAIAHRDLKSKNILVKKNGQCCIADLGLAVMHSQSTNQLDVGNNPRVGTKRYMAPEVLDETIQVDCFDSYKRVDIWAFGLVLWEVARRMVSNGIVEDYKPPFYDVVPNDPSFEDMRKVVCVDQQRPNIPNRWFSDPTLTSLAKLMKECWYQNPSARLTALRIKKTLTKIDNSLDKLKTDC
PROPERTY: pIC50
pIC50 field: float, defined as -log10 of concentration (mol/L).

## Input What value of pIC50 has been reported for the following compound? NC(=O)c1cccc2c(-c3cnn4cc(-c5ccc(N6C[C@@H]7C[C@H]6CN7)cc5)cnc34)cccc12 [Compound 12]
## Output 8.08

## Input Proceed to C[C@@H]1CNC[C@H](C)N1c1ccc(-c2cnc3c(-c4ccc(N)c5ccccc45)cnn3c2)cc1 [Compound 59]
## Output 7.37

## Input Proceed to CS(=O)(=O)c1cccc(-c2cnn3cc(-c4ccc(OCCN5CCCC5)cc4)cnc23)c1 [Compound 108]
## Output 7.08

## Input Proceed to CS(=O)(=O)c1cccc(-c2cnn3cc(-c4ccc(OC5(CN6CCC(O)CC6)CC5)cc4)cnc23)c1 [Compound 194]
## Output 7.70

## Input Proceed to C[S+](=O)([O-])c1cccc(-c2cnn3cc(-c4ccc(OC5(CN6C7CCC6CC7)CC5)cc4)cnc23)c1 [Compound 183]
## Output 7.70

## Input Proceed to C[C@@H]1CNC[C@H](C)N1c1ccc(-c2cnc3c(-c4cccc5c(C(N)=O)cccc45)cnn3c2)cc1 [Compound 10]
## Output 8.10

## Input Proceed to NS(=O)(=O)c1ccc(-c2cnn3cc(-c4ccc(OC5(CN6CCCCC6)COC5)cc4)cnc23)c2ccccc12 [Compound 87]
## Output 7.64

## Input Proceed to CS(=O)(=O)c1cccc(-c2cnn3cc(-c4ccc(C5CCCNC5)cc4)cnc23)c1 (stereo not drawn) [Compound 139]
## Output 7.05

## Input Proceed to C[C@@H]1CNC[C@H](C)N1c1ccc(-c2cnc3c(-c4cccc5c(-c6nn[nH]n6)cccc45)cnn3c2)cc1 [Compound 28]
## Output 7.64

## Input Proceed to C[C@@H]1CNC[C@H](C)N1c1ccc(-c2cnc3c(-c4cccc5ccccc45)cnn3c2)cc1 [Compound 31]
## Output 7.77

## Input Proceed to C[S+](=O)([O-])c1cccc(-c2cnn3cc(-c4ccc(OCCN5CCCCC5)cc4)cnc23)c1 [Compound 109]
## Output 7.02

## Input Proceed to CS(=O)(=O)c1cccc(-c2cnn3cc(-c4ccc(C5CCNCC5)cc4)cnc23)c1 [Compound 94]
## Output 7.28

## Input Proceed to CC(O)c1cccc(-c2cnn3cc(-c4ccc(OCCN5CCCC5)cc4)cnc23)c1 (stereo not drawn) [Compound 145]
## Output 7.20

## Input Proceed to CC(O)c1cccc(-c2cnn3cc(-c4ccc(CCN5CCCC5)cc4)cnc23)c1 (stereo not drawn) [Compound 146]
## Output 6.66

## Input Proceed to C[C@@H](O)c1cccc(-c2cnn3cc(-c4ccc(OCCN5CCCCC5)cc4)cnc23)c1 [Compound 149]
## Output 6.74

## Input Proceed to CN(C)C(=O)c1ccc(-c2cnn3cc(-c4ccc(N5CCNCC5)cc4)cnc23)c2ccccc12 [Compound 4]
## Output 5.55

## Input Proceed to CC(C)(CN1CCCCC1)Oc1ccc(-c2cnc3c(-c4cccc(S(C)(=O)=O)c4)cnn3c2)cc1 [Compound 101]
## Output 7.55

## Input Proceed to C[C@@H]1CNC[C@H](C)N1c1ccc(-c2cnc3c(-c4cc(N)cc5ccccc45)cnn3c2)cc1 [Compound 58]
## Output 7.44

## Input Proceed to C[C@@H]1CNC[C@H](C)N1c1ccc(-c2cnc3c(-c4ccc(CS(N)(=O)=O)cc4)cnn3c2)cc1 [Compound 71]
## Output 5.29

## Input Proceed to CC(O)c1cccc(-c2cnn3cc(-c4ccc(OC5(CN6CCCC6)CC5)cc4)cnc23)c1 (stereo not drawn) [Compound 167]
## Output 7.31

## Input Proceed to N=C(N)c1ccc(-c2cnn3cc(-c4ccc(N5CCNCC5)cc4)cnc23)c2ccccc12 [Compound 16]
## Output 7.08

## Input Proceed to c1cc(-c2cc[nH]n2)cc(-c2cnn3cc(-c4ccc(CCN5CCCCC5)cc4)cnc23)c1 [Compound 90]
## Output 7.85

## Input Proceed to Fc1ccc(-c2cnn3cc(-c4ccc(CCN5CCCCC5)cc4)cnc23)cc1-c1nnn[nH]1 [Compound 78]
## Output 7.80

## Input Proceed to CC(C)(CN1CCCCC1)Oc1ccc(-c2cnc3c(-c4ccc(C(N)=O)c5ccccc45)cnn3c2)cc1 [Compound 17]
## Output 8.30

## Input Proceed to C[C@@H]1CNC[C@H](C)N1c1ccc(-c2cnc3c(-c4ccc(N)c(S(N)(=O)=O)c4)cnn3c2)cc1 [Compound 85]
## Output 7.41

## Input Proceed to CS(=O)(=O)c1cccc(-c2cnn3cc(-c4ccc(C(F)(F)CN5CCOCC5)cc4)cnc23)c1 [Compound 121]
## Output 6.46

## Input Proceed to C[S+](=O)([O-])c1cccc(-c2cnn3cc(-c4ccc(OC5(CN6CCC7(CC6)CNC7)CC5)cc4)cnc23)c1 [Compound 184]
## Output 7.64

## Input Proceed to CC(O)c1cccc(-c2cnn3cc(-c4ccc(OCCN5CCCCC5)cc4)cnc23)c1 (stereo not drawn) [Compound 142]
## Output 6.96

## Input Proceed to CN1CCC(c2ccc(-c3cnc4c(-c5ccc(S(N)(=O)=O)c6ccccc56)cnn4c3)cc2)CC1 [Compound 80]
## Output 7.46
